Assay: NCI Yeast Anticancer Drug Screen. Data for the cln2 rad14 strain (AID 165)
Details: S. cerevisiae cln2 rad14 strain, at 50.0 µM
Compounds without any hit were thinned out: in the full panel of roughly 79,000, 15% have a hit. Calls of active or inactive are those of the source. Rule as the data show it: active = growth inhibition above about 70%; inactive = the rest.
Allowed answers: active, inactive

See these solved cases before continuing.
Call for entry CCCCC(CC)C(O)C(=O)O (stereo not drawn) :
inactive

Hi, do you know how O=C(c1cc2c(C(F)(F)F)onc2c2ccccc12)C(F)(F)F came out in this test?
inactive

Identify the outcome logged in this assay for the compound shown: CCCCCCCCCCCCCCCCOC(=O)C[n+]1cccc(C(N)=O)c1
inactive

Hello, I am checking results. What call was entered for CC(C)=CCc1c2c(c3occ(-c4ccc(O)c(O)c4)c(=O)c3c1O)C=CC(C)(C)O2 ?
active

How was COc1ccnc(-c2cc(OC)cc(/C(N)=N/O)n2)c1 classified in this test?
active

Kindly provide the recorded test outcome for the following compound: O=C(NNc1ccccc1)c1ccccc1Cl
active

So what was the verdict on S=C(Nc1ccc(Cl)c(Cl)c1)SC1CCCCC1 in this test?
active

Outcome? CC(=O)Nc1ccc(S(=O)(=O)/N=C2\C=CC(=O)c3ccccc32)cc1
inactive

Next:
For CCc1nc2ccc(N=NN(C)C)cc2[nH]1 , what call appears in the results of this test?
active

Name the outcome recorded for CC1=C(C(=O)Nc2ccccc2)C(c2cc(Cl)cc(Cl)c2)C(C(=O)Nc2ccccc2)=C(C)N1 in the assay.
inactive
